assay: Cytotoxicity against mouse IL-3 dependent BaF3 cells assessed as inhibition of cell growth incubated for 72 hrs by CCK-8 assay; assay type: toxicity, cell-based; conditions: BaF3 cells (IL-3 dependent)
Under this convention, True denotes IC50 at 72 h strictly below 5 µM and False denotes IC50 at 72 h at or above 5 µM.

{"smiles-data": "CCS(=O)(=O)n1cc2c3ccc(cc31)OCCCCCCCOc1cc(ccc1N1CCOCC1)Nc1ncc(Cl)c-2n1", "label-class": "True"}
{"smiles-data": "CCOc1cc(N2CCC(N3CCN(C)CC3)CC2)c(Cl)cc1Nc1ncc(Cl)c(-c2cn(S(=O)(=O)CC)c3ccccc23)n1", "label-class": "False"}
{"smiles-data": "CCS(=O)(=O)n1cc2c3ccc(cc31)OCCCCCCCCOc1cc(ccc1N1CCOCC1)Nc1ncc(Cl)c-2n1", "label-class": "True"}
{"smiles-data": "CCS(=O)(=O)n1cc2c3ccc(cc31)OCCCCCCOc1cc(c(F)cc1N1CCOCC1)Nc1ncc(Cl)c-2n1", "label-class": "True"}
{"smiles-data": "CCc1cc(N2CCOCC2)c2cc1Nc1ncc(Cl)c(n1)-c1cn(S(=O)(=O)CC)c3cc(ccc13)OCCCCCCO2", "label-class": "True"}
{"smiles-data": "CCS(=O)(=O)n1cc(-c2nc(Nc3cc(Cl)c(N4CCC(N5CCN(C)CC5)CC4)cc3OC(C)C)ncc2Cl)c2ccccc21", "label-class": "False"}
{"smiles-data": "CCS(=O)(=O)n1cc2c3ccc(cc31)OCCCCCCOc1cc(c(C3CC3)cc1N1CCOCC1)Nc1ncc(Cl)c-2n1", "label-class": "False"}

###

assay: Cytotoxicity against mouse IL-3 dependent BaF3 cells assessed as inhibition of cell growth incubated for 72 hrs by CCK-8 assay; format: toxicity, cell-based; settings: BaF3 cells (IL-3 dependent)
Below: a set of entries, each annotated with reported IC50 at 72 h.
endpoint: IC50 at 72 h (nM)

{"compound": "COc1cc(N2CCC(N3CCN(C)CC3)CC2)ccc1Nc1ncc(Cl)c(Nc2ccccc2P(C)(C)=O)n1 [BRIGATINIB]", "endpoint": "IC50 at 72 h", "modifier": "=", "recorded-value": 1910}
{"compound": "CCS(=O)(=O)n1cc2c3ccc(cc31)OCCCCCCOc1cc(ccc1N1CCOCC1)Nc1ncc(Cl)c-2n1", "endpoint": "IC50 at 72 h", "modifier": "=", "recorded-value": 293}
{"compound": "CCS(=O)(=O)n1cc(-c2nc(Nc3cc(Cl)c(N4CCC(N5CCN(C)CC5)CC4)cc3C)ncc2Cl)c2ccccc21", "endpoint": "IC50 at 72 h", "modifier": "=", "recorded-value": 1320}
{"compound": "C=CC(=O)Nc1cc(Nc2nccc(-c3cn(C)c4ccccc34)n2)c(OC)cc1N(C)CCN(C)C [OSIMERTINIB]", "endpoint": "IC50 at 72 h", "modifier": "=", "recorded-value": 3520}
{"compound": "CCS(=O)(=O)n1cc2c3ccc(cc31)OCCCCCOc1cc(ccc1N1CCOCC1)Nc1ncc(Cl)c-2n1", "endpoint": "IC50 at 72 h", "modifier": "=", "recorded-value": 349}
{"compound": "CCS(=O)(=O)n1cc2c3ccc(cc31)OCCCCCCOc1cc(c(Cl)cc1N1CCOCC1)Nc1ncc(Cl)c-2n1", "endpoint": "IC50 at 72 h", "modifier": ">", "recorded-value": 10000}
{"compound": "CCS(=O)(=O)n1cc2c3ccc(cc31)OCCCCCCOc1cc(c(C)cc1N1CCOCC1)Nc1ncc(Cl)c-2n1", "endpoint": "IC50 at 72 h", "modifier": "=", "recorded-value": 2080}

Entry source: ChEMBL document CHEMBL5154883
